Exercise: state measured pIC50 for each of the compounds provided.
testTarget: UniProt P31639
assayName: Inhibitory effects on human SGLT2 activities: sodium-dependent 14C-AMG glucose transport (uptake) assay in CHO cells expressing hSGLT2
runParameters: read-out: hSGLT2 Inhibitory Activity IC50; CHO cells stably expressing hSGLT2; 14C-AMG uptake, 37° C., 2 h; single determinations for examples; in-house assay
# pIC50: negative log10 of molar concentration; output just the value

Reported pIC50 ( CCOc1ccc(Cc2sc([C@@H]3O[C@H](CO)[C@@H](O)[C@H](O)[C@H]3O)cc2C)cc1 ) = 7.15

Reported pIC50 ( CCCOc1ccc(Cc2cc([C@@H]3O[C@H](CO)[C@@H](O)[C@H](O)[C@H]3O)sc2Cl)cc1 ) = 7.19

Reported pIC50 ( CC(C)Oc1ccc(Cc2cc([C@@H]3O[C@H](CO)[C@@H](O)[C@H](O)[C@H]3O)sc2Cl)cc1 ) = 7.92

Reported pIC50 ( CCCc1ccc(Cc2cc([C@@H]3O[C@H](CO)[C@@H](O)[C@H](O)[C@H]3O)sc2Cl)cc1 ) = 7.99

Reported pIC50 ( CCc1ccc(Cc2sc([C@@H]3O[C@H](CO)[C@@H](O)[C@H](O)[C@H]3O)cc2C)cc1 ) = 7.61

Reported pIC50 ( CCc1ccc(Cc2cc([C@@H]3O[C@H](CO)[C@@H](O)[C@H](O)[C@H]3O)sc2Cl)cc1 ) = 8.35

Reported pIC50 ( CCCc1ccc(Cc2sc([C@@H]3O[C@H](CO)[C@@H](O)[C@H](O)[C@H]3O)cc2C)cc1 ) = 7.22

Reported pIC50 ( CCOc1ccc(Cc2cc([C@@H]3O[C@H](CO)[C@@H](O)[C@H](O)[C@H]3O)sc2C)cc1 ) = 8.06

Reported pIC50 ( Cc1sc([C@@H]2O[C@H](CO)[C@@H](O)[C@H](O)[C@H]2O)cc1Cc1ccc(O)cc1 ) = 7.30

Reported pIC50 ( Cc1ccc(Cc2sc([C@@H]3O[C@H](CO)[C@@H](O)[C@H](O)[C@H]3O)cc2C)cc1 ) = 7.16

Reported pIC50 ( CC#CCOc1ccc(Cc2cc([C@@H]3O[C@H](CO)[C@@H](O)[C@H](O)[C@H]3O)sc2Cl)cc1 ) = 7.03

Reported pIC50 ( OC[C@H]1O[C@@H](c2cc(Cc3ccc(OC4CCCC4)cc3)c(Cl)s2)[C@H](O)[C@@H](O)[C@@H]1O ) = 7.24

Reported pIC50 ( Cc1sc([C@@H]2O[C@H](CO)[C@@H](O)[C@H](O)[C@H]2O)cc1Cc1ccc(-c2ccc(F)cc2)s1 ) = 7.68

Reported pIC50 ( C=CCOc1ccc(Cc2cc([C@@H]3O[C@H](CO)[C@@H](O)[C@H](O)[C@H]3O)sc2C)cc1 ) = 7.56

====

testTarget: Human SGLT2 (hSGLT2) (Homo sapiens (Human), UniProt P31639)
Sequence (P31639 whole entry): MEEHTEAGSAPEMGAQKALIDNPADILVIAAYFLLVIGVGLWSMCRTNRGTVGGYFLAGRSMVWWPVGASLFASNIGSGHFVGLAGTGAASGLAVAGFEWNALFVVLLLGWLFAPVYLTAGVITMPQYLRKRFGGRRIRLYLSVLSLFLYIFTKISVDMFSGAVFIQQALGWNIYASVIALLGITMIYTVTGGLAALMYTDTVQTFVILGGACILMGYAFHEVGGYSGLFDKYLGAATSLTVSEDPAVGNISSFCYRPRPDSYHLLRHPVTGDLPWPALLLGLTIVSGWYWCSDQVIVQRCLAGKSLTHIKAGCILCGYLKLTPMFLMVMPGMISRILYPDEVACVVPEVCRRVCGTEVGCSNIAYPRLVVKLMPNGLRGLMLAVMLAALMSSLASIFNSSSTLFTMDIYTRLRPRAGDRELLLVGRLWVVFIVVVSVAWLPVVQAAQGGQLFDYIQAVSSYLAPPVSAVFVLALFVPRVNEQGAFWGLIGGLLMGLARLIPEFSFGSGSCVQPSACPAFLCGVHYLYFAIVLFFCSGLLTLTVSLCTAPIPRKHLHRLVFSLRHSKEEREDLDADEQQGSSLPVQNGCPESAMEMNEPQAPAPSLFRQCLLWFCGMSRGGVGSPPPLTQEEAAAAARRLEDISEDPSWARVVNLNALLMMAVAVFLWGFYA
assayName: Inhibitory effects on human SGLT2 activities: sodium-dependent 14C-AMG glucose transport (uptake) assay in CHO cells expressing hSGLT2
runParameters: read-out: hSGLT2 Inhibitory Activity IC50; CHO cells stably expressing hSGLT2; 14C-AMG uptake, 37° C., 2 h; single determinations for examples; in-house assay
metricName: pIC50
# pIC50: negative log10 of molar concentration; output just the value

Reported pIC50 ( CCSc1ccc(Cc2cc([C@@H]3O[C@H](CO)[C@@H](O)[C@H](O)[C@H]3O)sc2Cl)cc1 ) = 7.32

Reported pIC50 ( Cc1cc([C@@H]2O[C@H](CO)[C@@H](O)[C@H](O)[C@H]2O)sc1Cc1ccc(Cl)cc1 ) = 6.35

Reported pIC50 ( CSc1ccc(Cc2cc([C@@H]3O[C@H](CO)[C@@H](O)[C@H](O)[C@H]3O)sc2Cl)cc1 ) = 7.89

Reported pIC50 ( OC[C@H]1O[C@@H](c2cc(Cc3ccc(-c4ccc(F)cc4)s3)c(Cl)s2)[C@H](O)[C@@H](O)[C@@H]1O ) = 7.04

Reported pIC50 ( CCOCCOc1ccc(Cc2cc([C@@H]3O[C@H](CO)[C@@H](O)[C@H](O)[C@H]3O)sc2Cl)cc1 ) = 7.15

Reported pIC50 ( COCCOc1ccc(Cc2cc([C@@H]3O[C@H](CO)[C@@H](O)[C@H](O)[C@H]3O)sc2Cl)cc1 ) = 6.94

Reported pIC50 ( Cc1ccc(Cc2cc([C@@H]3O[C@H](CO)[C@@H](O)[C@H](O)[C@H]3O)sc2Cl)cc1 ) = 7.22

Reported pIC50 ( C#CCOc1ccc(Cc2cc([C@@H]3O[C@H](CO)[C@@H](O)[C@H](O)[C@H]3O)sc2Cl)cc1 ) = 6.95

Reported pIC50 ( Cc1cc([C@@H]2O[C@H](CO)[C@@H](O)[C@H](O)[C@H]2O)sc1Cc1ccc(C(C)(C)C)cc1 ) = 7.05

Reported pIC50 ( OC[C@H]1O[C@@H](c2cc(Cc3ccc(OC4CCOC4)cc3)c(Cl)s2)[C@H](O)[C@@H](O)[C@@H]1O (stereo partly shown) ) = 6.79

Reported pIC50 ( COc1ccc(Cc2sc([C@@H]3O[C@H](CO)[C@@H](O)[C@H](O)[C@H]3O)cc2C)cc1 ) = 7.16

Reported pIC50 ( C=CCOc1ccc(Cc2cc([C@@H]3O[C@H](CO)[C@@H](O)[C@H](O)[C@H]3O)sc2Cl)cc1 ) = 7.26

Reported pIC50 ( OC[C@H]1O[C@@H](c2cc(Cc3ccc(O)cc3)c(Cl)s2)[C@H](O)[C@@H](O)[C@@H]1O ) = 6.85

Reported pIC50 ( COc1ccc(Cc2cc([C@@H]3O[C@H](CO)[C@@H](O)[C@H](O)[C@H]3O)sc2C)cc1 ) = 7.94

Reported pIC50 ( COc1ccc(Cc2cc([C@@H]3O[C@H](CO)[C@@H](O)[C@H](O)[C@H]3O)sc2Cl)cc1 ) = 7.06

Reported pIC50 ( CCOc1ccc(Cc2cc([C@@H]3O[C@H](CO)[C@@H](O)[C@H](O)[C@H]3O)sc2Cl)cc1 ) = 7.46
